B1: OR4K15 (parent)
chain: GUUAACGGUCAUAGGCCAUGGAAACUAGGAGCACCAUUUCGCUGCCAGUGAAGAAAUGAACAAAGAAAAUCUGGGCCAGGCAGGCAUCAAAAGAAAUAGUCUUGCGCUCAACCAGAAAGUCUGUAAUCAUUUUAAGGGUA

# Variants of: B1
# PROCEDURE_DETAILS: self-cleavage, relative activity (ratio to wild type); higher = more cleavage; in vitro, sequencing; the parent is a self-cleaving ribozyme
Please enter 1.0 where self-cleavage is greater than or equal to 0.6, and 0.0 where it is lower.

Form field: self-cleavage at least 0.6? Entry: U87C U131A
0.0

Form field: self-cleavage at least 0.6? Entry: A68G U127G
1.0

Form field: self-cleavage at least 0.6? Entry: A69G U120A
1.0

Form field: self-cleavage at least 0.6? Entry: A18U A114C
0.0

Form field: self-cleavage at least 0.6? Entry: C81U A94G
0.0

Form field: self-cleavage at least 0.6? Entry: C6A
1.0

Form field: self-cleavage at least 0.6? Entry: A52G C112U
0.0

Form field: self-cleavage at least 0.6? Entry: A95C A140G
1.0

Form field: self-cleavage at least 0.6? Entry: A23U G93A
1.0

Form field: self-cleavage at least 0.6? Entry: U97C A126G
1.0

Form field: self-cleavage at least 0.6? Entry: A5C A18G
1.0

Form field: self-cleavage at least 0.6? Entry: U3A U70C
1.0

Form field: self-cleavage at least 0.6? Entry: A47G A125U
1.0

Form field: self-cleavage at least 0.6? Entry: U97C A110G
0.0

Form field: self-cleavage at least 0.6? Entry: G7A A111G
0.0

Form field: self-cleavage at least 0.6? Entry: A30G U38C
1.0

Form field: self-cleavage at least 0.6? Entry: C40A A78G
0.0

Form field: self-cleavage at least 0.6? Entry: A4G U103A
1.0

Form field: self-cleavage at least 0.6? Entry: G75C U103C
0.0

Form field: self-cleavage at least 0.6? Entry: A13G A60G
1.0

Form field: self-cleavage at least 0.6? Entry: U12C A13U
1.0

Form field: self-cleavage at least 0.6? Entry: A116G A125G
0.0
